tested_on: Furin (Homo sapiens) (UniProt P09958)
Sequence (P09958 whole entry, looked up): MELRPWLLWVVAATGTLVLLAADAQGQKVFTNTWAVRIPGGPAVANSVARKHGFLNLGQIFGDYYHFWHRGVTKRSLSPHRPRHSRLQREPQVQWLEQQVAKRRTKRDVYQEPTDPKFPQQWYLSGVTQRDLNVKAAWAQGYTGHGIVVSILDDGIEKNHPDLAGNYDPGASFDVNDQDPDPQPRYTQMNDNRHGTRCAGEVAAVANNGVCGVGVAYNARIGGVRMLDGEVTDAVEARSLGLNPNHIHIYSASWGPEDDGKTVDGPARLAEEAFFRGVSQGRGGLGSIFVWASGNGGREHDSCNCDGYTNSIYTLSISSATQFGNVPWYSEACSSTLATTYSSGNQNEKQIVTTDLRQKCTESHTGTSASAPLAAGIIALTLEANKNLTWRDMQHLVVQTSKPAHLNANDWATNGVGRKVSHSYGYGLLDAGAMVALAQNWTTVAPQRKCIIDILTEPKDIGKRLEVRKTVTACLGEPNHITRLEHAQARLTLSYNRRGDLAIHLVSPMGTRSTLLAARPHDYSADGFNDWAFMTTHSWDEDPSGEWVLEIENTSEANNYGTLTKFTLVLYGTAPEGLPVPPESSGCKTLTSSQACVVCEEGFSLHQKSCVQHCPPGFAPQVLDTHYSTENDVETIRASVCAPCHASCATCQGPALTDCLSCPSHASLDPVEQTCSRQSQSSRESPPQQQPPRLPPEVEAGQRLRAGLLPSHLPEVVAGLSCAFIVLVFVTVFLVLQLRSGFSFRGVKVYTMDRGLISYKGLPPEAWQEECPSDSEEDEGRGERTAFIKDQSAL
assay_procedure: Furin counterscreen qHTS for Zika virus inhibitors (AID 1347149); also: nearly all actives have a fitted effect of over 70% in size
condition_context: furin enzymatic counterscreen, fluorogenic substrate; series mostly up to 57.5 µM
Records with an inconclusive call do not appear. Calls of active or inactive are those of the source. Calls follow the shape of the dose curve; as a rule, active = well fitted inhibition curve with a large enough effect; inconclusive = small, poorly fitted or top-dose-only effect; inactive = no such curve, though single readings can be large or run the other way.
Write down the outcome that applies. Available outcomes: class 1 = active, class 0 = inactive

What did the test return for CCCc1nc2c(C)cc(-c3nc4ccccc4n3C)cc2n1Cc1ccc(-c2ccccc2C(=O)O)cc1 ?
class 1

###

Each item that follows carries a reported Z-AUC.
assay_procedure: qHTS drug screen for cell cycle checkpoint inhibitors in PARPi-resistant BRCA-mutant ovarian cancer cell lines. (AID 1963452)
condition_context: PEO1/OlaR viability, CellTiter-Glo luminescence, 96 h; active compounds read low
Please give only the number in your answer, with no unit.

Give the value of Z-AUC reported for the following: Cc1c(CCOc2ccc(C(=O)O)cc2)c2cc(Cl)ccc2n1C(c1ccccc1)c1ccccc1
0.749

Give the value of Z-AUC reported for the following: c1ccc([C@H]2CN3CCSC3=N2)cc1
-0.761

Give the value of Z-AUC reported for the following: O=C1CCC(N2C(=O)c3ccccc3C2=O)C(=O)N1 (stereo not given)
0.908

Give the value of Z-AUC reported for the following: CCC(C)N(C)C(=O)c1cc2ccccc2c(-c2ccccc2Cl)n1 (stereo not given)
-0.72

Give the value of Z-AUC reported for the following: CC(=O)NC(C)c1ccc(Oc2ccc(OC(C)C)cc2)cc1 (stereo not given)
0.0363

Give the value of Z-AUC reported for the following: CC(C)(N)C(=O)N[C@H](COCc1ccccc1)C(=O)N1CCC2(CC1)CN(S(C)(=O)=O)c1ccccc12
1.64

Give the value of Z-AUC reported for the following: NS(=O)(=O)c1cc2c(cc1Cl)NC=NS2(=O)=O
0.885

Give the value of Z-AUC reported for the following: COc1ccc(-c2c(-c3ccc(O)cc3O)n[nH]c2C)cc1
0.835

Give the value of Z-AUC reported for the following: COCCNCCCn1c(C(=O)CF)c(-c2ccc(C)cc2)c2c(N)ncnc21
0.937

Give the value of Z-AUC reported for the following: CS(=O)(=O)c1cccc(CNc2nc(Nc3ccc4c(c3)CCC(=O)N4)ncc2C(F)(F)F)c1
-0.784

###

assay_procedure: Quantitative High-Throughput drug screen in 47 multiple myeloma cell lines against the NCATS MIPE library collection: OCIMY5_PLB cell viability assay (AID 1918988); also: nearly all actives have a fitted effect of over 65% in size
condition_context: OCI-MY5 myeloma viability, ATP luminescence, 48 h; series mostly up to 45.8 µM
Excerpt: PI: Beverly A. Mock Ph.D. Laboratory of Cancer Biology and Genetics, Center for Cancer Research, National Cancer Institute, National Institute of Health, Bethesda, Maryland […] 5; Detector; 425V; Luminescence; Viewlux PerkinElmer. […] 1. […] Briefly, the corresponding myeloma cell lines were screened in 1,536-well plates with 500 cells, 5-uL per well for inhibition of cell viability (assessed by measuring ATP levels with CellTiterGlo). […]
Inconclusive results are not listed. Active and inactive are the calls of the source. The call rests on the fitted dose curve; in most records, active means well fitted cell-killing curve with a large enough effect; inconclusive means small, poorly fitted or top-dose-only effect, or effect the other way; inactive means no such curve, though single readings can be large or run the other way.
Write down the outcome that applies. Available outcomes: yes = active, no = inactive

{"compound": "CCOc1cc(N2CCC(O)CC2)ccc1Nc1ncc2c(n1)N(C)c1ccccc1C(=O)N2C", "answer_label": "yes"}

What did the test return for CCOc1ccc(Cc2cc([C@@H]3O[C@H](CO)[C@@H](O)[C@H](O)[C@@H]3O)ccc2Cl)cc1 ?
no

What did the test return for CNC(=O)c1ccc(N2C(=S)N(c3ccc(C#N)c(C(F)(F)F)c3)C(=O)C2(C)C)cc1F ?
no

What did the test return for CC(C)(C)OC(=O)CN(Cc1ccc(Cl)cc1)Cc1ccc([N+](=O)[O-])s1 ?
yes

What did the test return for COc1ccc(C2=N[C@H](c3ccc(Cl)cc3)[C@H](c3ccc(Cl)cc3)N2C(=O)N2CCNC(=O)C2)c(OC(C)C)c1 ?
yes

What did the test return for Nc1nc2c(ncn2COCCO)c(=O)[nH]1 ?
no

What did the test return for Cc1cccc(-c2nn(C(=S)Nc3ccccc3)cc2-c2ccnc3ccccc23)n1 ?
yes

What did the test return for NC(=O)c1ccc(-c2nc(-c3ccc4c(c3)OCCO4)c(-c3ccccn3)[nH]2)cc1 ?
yes

What did the test return for Cc1c(CN2CCN(C(=O)C(C)C)CC2)sc2c(N3CCOCC3)nc(-c3cnc(N)nc3)nc12 ?
yes

What did the test return for Cc1cc(Nc2nc(N[C@@H](C)c3ncc(F)cn3)ncc2Cl)n[nH]1 ?
yes

What did the test return for N[C@@H]1CONC1=O ?
no

What did the test return for CC[C@@H](C)[C@H](NC(=O)[C@H](CC1CCCCC1)NC(=O)c1ccno1)C(=O)N1CCC2(CCc3ccccc32)CC1 ?
yes

What did the test return for CN[C@@H](C)C(=O)N[C@H]1CCCC[C@H]2CC[C@@H](C(=O)N[C@@H](c3ccccc3)c3cn(CCCCc4ccc(CCCCn5cc([C@@H](NC(=O)[C@@H]6CC[C@@H]7CCCC[C@H](NC(=O)[C@H](C)NC)C(=O)N76)c6ccccc6)nn5)cc4)nn3)N2C1=O ?
yes

What did the test return for COc1ccccc1[C@H](c1cccc2ccccc12)[C@@](C)(C#N)C(=O)N1CCC(c2cccc(C(F)(F)F)c2)CC1 ?
yes

What did the test return for CCC(C)n1ncn(-c2ccc(N3CCN(c4ccc(OC[C@H]5CO[C@](Cn6cncn6)(c6ccc(Cl)cc6Cl)O5)cc4)CC3)cc2)c1=O (stereo partly drawn) ?
yes

What did the test return for COc1cc2nccc(Oc3ccc(NC(=O)NC4CC4)c(Cl)c3)c2cc1C(N)=O ?
yes

What did the test return for CC(=O)NC(C)c1ccc(Oc2ccc(OC(C)C)cc2)cc1 (stereo not drawn) ?
yes

What did the test return for CCc1cncnc1N1CCN(Cc2nc3ccc(C(F)(F)F)cc3[nH]2)CC1 ?
yes
